Data credit: patent US6087355A

Measured MIC on E. faecium A491(Amp^R) follows.
Structures can show the parent of a compound that is named as a salt.
Answer in µg/mL, number only, no unit symbol.

Consider the worked cases shown below.
{"columns": ["compound", "units text", "MIC"],
 "data": [
  ["N=CNCCSCc1cnccc1SC1=C(C(=O)O)N2C(=O)[C@@H](NC(=O)/C(=N\\O)c3nc(N)sc3Cl)[C@H]2SC1 [Cmpd 31, trifluoroacetic acid salt]", "µg/mL", 8],
  ["CNCCSCc1cnccc1SC1=C(C(=O)O)N2C(=O)[C@@H](NC(=O)/C(=N\\O)c3nc(N)sc3Cl)[C@H]2SC1 [Cmpd 41, trifluoroacetic acid salt]", "µg/mL", 8],
  ["Nc1nc(/C(=N/O)C(=O)N[C@@H]2C(=O)N3C(C(=O)O)=C(Sc4ccncc4CSCC(N)CO)CS[C@H]23)c(Cl)s1 (some centres unmarked) [Cmpd 56, trifluoroacetic acid salt]", "µg/mL", 8],
  ["CC(C)(N)CSCc1cnccc1SC1=C(C(=O)O)N2C(=O)[C@@H](NC(=O)/C(=N\\O)c3nc(N)sc3Cl)[C@H]2SC1 [Cmpd 62, trifluoroacetic acid salt]", "µg/mL", 16],
  ["NCC[S+]([O-])Cc1cnccc1SC1=C(C(=O)O)N2C(=O)[C@@H](NC(=O)/C(=N\\O)c3nc(N)sc3Cl)[C@H]2SC1 (some centres unmarked) [Cmpd 53, trifluoroacetic acid salt]", "µg/mL", 16]
]}

Next item in the queue.
Query :: Complete the entry with MIC for N=C(N)SCc1cnccc1SC1=C(C(=O)O)N2C(=O)[C@@H](NC(=O)/C(=N\OC3CCCC3)c3csc(N)n3)[C@H]2SC1 [Cmpd 8, trifluoroacetic acid salt]
Result :: 32
